The measurements presented in this section are drawn from ChEMBL document CHEMBL5370608.

# EXPERIMENT: AUC (0 to infinity) in Wistar Han rat at 1 mg/kg, po measured upto 24 hrs by LC-MS/MS analysis
# Type: ADME, organism-based
# Design: time < 24 hrs, dose 1 mg/kg, route po
# CONDITION_CONTEXT: in vivo
ENDPOINT_LABEL: AUC(0-inf) (µM·h)

STRUCTURE_AS_SMILES	RECORDED_NUMBER
FC(F)c1nnc(-c2ccc(Cn3nnc(-c4ccccn4)n3)nc2)o1	15

* * *

# EXPERIMENT: Clearance in Wistar Han rat at 0.5 mg/kg, iv measured upto 24 hrs by LC-MS/MS analysis
# Assay type: ADME, organism-based
# CONDITION_CONTEXT: in vivo
ENDPOINT_LABEL: clearance (mL/min/kg)

STRUCTURE_AS_SMILES	RESULT_UNIT	RECORDED_NUMBER
FC(F)c1nnc(-c2ccc(Cn3nnc(-c4ccccn4)n3)nc2)o1	mL/min/kg	3.2
O=C(NO)c1cnc(NC2(c3ccccc3)CCC(F)(F)CC2)nc1	mL/min/kg	180

* * *

# SYSTEM: Histone deacetylase 9 (Homo sapiens, UniProt Q9UKV0)
# Sequence (Q9UKV0 whole entry): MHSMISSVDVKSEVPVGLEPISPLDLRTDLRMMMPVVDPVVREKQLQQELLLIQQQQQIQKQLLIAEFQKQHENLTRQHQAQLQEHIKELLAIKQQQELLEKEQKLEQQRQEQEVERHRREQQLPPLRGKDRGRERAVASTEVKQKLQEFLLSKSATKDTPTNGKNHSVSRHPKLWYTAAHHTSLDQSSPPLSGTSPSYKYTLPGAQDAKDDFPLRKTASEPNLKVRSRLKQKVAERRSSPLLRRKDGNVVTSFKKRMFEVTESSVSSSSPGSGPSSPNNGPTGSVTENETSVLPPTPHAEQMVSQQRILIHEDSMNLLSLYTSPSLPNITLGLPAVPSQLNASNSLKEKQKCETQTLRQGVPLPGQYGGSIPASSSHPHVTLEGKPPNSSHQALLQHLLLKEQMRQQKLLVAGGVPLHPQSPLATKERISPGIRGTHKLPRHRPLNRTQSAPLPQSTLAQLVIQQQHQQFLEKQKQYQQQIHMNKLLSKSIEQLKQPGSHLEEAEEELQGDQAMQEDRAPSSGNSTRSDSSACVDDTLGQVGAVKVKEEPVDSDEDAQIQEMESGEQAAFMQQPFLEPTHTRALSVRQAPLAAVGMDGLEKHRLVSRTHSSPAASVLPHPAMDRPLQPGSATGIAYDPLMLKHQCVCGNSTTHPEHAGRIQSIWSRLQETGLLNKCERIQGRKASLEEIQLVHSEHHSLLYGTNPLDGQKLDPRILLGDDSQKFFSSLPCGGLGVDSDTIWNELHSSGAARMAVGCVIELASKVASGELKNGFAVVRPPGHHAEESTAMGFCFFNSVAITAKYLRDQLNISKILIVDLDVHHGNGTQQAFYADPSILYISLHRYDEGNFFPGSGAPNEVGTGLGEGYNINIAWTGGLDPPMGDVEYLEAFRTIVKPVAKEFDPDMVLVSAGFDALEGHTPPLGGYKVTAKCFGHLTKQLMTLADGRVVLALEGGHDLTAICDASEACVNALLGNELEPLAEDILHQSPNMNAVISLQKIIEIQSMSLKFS
# EXPERIMENT: Inhibition of human recombinant HDAC9 incubated for 30 mins by fluorimetry analysis
pIC50: −log10 of the molar value.

COMPOUND	RELATION	pIC50
FC(F)c1nnc(-c2ccc(Cn3nnc(-c4ccccn4)n3)nc2)o1	<	4.00
O=C(NO)c1cnc(NC2(c3ccccc3)CCC(F)(F)CC2)nc1	=	4.72
CS(=O)(=O)NCC(Nc1ncc(-c2nnc(C(F)F)o2)cn1)c1ccc(OC(F)(F)F)cc1 (centres undefined)	=	4.72
COc1ccccc1-c1nnn(Cc2ccc(-c3nnc(C(F)F)o3)cn2)n1	<	4.00

* * *

# EXPERIMENT: AUC (0 to infinity) in Wistar Han rat at 10 mg/kg, po measured upto 24 hrs by LC-MS/MS analysis
# Assay type: ADME, organism-based
# Parameters: dose 10 mg/kg, time < 24 hrs, route po
# CONDITION_CONTEXT: in vivo

STRUCTURE_AS_SMILES	AUC(0-inf)
O=C(NO)c1cnc(NC2(c3ccccc3)CCC(F)(F)CC2)nc1	0.05 µM·h

* * *

Quick reference: fraction unbound of the listed items.
# EXPERIMENT: Plasma protein binding in human assessed as unbound fraction
# Format: ADME, cell-free

STRUCTURE_AS_SMILES	fraction unbound
FC(F)c1nnc(-c2ccc(Cn3nnc(-c4ccccn4)n3)nc2)o1	0.13
O=C(NO)c1cnc(NC2(c3ccccc3)CCC(F)(F)CC2)nc1	0.23

* * *

# SYSTEM: Polyamine deacetylase HDAC10 (Homo sapiens)
# Sequence (Q969S8 whole entry): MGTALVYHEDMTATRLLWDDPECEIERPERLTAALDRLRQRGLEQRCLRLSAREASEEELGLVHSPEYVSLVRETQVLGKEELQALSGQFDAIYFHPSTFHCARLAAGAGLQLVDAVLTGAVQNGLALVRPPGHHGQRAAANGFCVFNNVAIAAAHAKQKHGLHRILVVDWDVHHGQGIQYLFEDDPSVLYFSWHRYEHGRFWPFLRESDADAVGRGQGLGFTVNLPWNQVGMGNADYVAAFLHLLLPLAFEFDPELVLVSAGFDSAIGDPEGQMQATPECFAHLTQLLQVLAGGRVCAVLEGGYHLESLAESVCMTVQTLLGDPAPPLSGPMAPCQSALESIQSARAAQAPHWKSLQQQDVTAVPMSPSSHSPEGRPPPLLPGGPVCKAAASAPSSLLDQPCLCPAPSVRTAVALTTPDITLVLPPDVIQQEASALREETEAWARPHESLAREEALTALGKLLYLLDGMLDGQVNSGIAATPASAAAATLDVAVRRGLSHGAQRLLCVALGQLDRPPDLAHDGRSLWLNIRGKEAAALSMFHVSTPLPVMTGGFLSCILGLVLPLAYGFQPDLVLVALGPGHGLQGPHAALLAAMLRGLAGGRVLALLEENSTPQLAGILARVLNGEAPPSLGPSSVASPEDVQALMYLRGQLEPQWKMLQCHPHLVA
# EXPERIMENT: Inhibition of human recombinant HDAC10 incubated for 45 mins by fluorimetry analysis
pIC50: −log10 of the molar value.
Readings of pIC50 for the listed compounds
ENDPOINT_LABEL: pIC50

COMPOUND	RESULT
O=C(NO)c1cnc(NC2(c3ccccc3)CCC(F)(F)CC2)nc1	4.74
COc1ccccc1-c1nnn(Cc2ccc(-c3nnc(C(F)F)o3)cn2)n1	< 4.00
FC(F)c1nnc(-c2ccc(Cn3nnc(-c4ccccn4)n3)nc2)o1	< 4.00
CS(=O)(=O)NCC(Nc1ncc(-c2nnc(C(F)F)o2)cn1)c1ccc(OC(F)(F)F)cc1 (centres undefined)	< 4.00
